The origin of these recorded values is PubChem BioAssay AID493084.

Target: Thyrotropin-releasing hormone receptor (Homo sapiens)
Test: qHTS for Small Molecule Agonists and Allosteric Enhancers of Human TRH Receptor: Primary Screen for Agonists. Also: 0% is about no effect.
Conditions: TRHR cells, calcium flux fluo-8, FDSS agonist mode; at 2 µM; stronger effect = higher value
About 650 (0.18%) of roughly 360,000 compounds were called active. The sample as a whole holds a higher share of actives than the screen did.
Provide the recorded activation for the entries that follow.
State just the number; it will be interpreted in %.

// Input: "COc1ccccc1-n1c(-c2ccc(C)cc2)cn2c3c(=O)n(C)c(=O)n(C)c3nc12" . Output its activation only.
0.636

// Input: "Cc1ccc(C)n1-c1nnc(N2CCC(C(=O)NCc3ccc(F)cc3)CC2)s1" . Output its activation only.
-0.123

// Input: "CCc1ccc(S(=O)(=O)n2ccnc2)cc1" . Output its activation only.
0.631

// Input: "Cc1ccc2nc(/C(C#N)=C/c3ccc(-c4ccc(C(=O)OC(C)C)cc4)o3)[nH]c2c1" . Output its activation only.
69.6

// Input: "O=S(=O)(c1ccc(Br)cc1)c1nnn2c1nc(NC1CCCCCC1)c1sccc12" . Output its activation only.
-0.704

// Input: CCC(=O)N1c2ccccc2CC1C(=O)N1CCN(c2cccc(OC)c2)CC1 (stereo unspecified) . Output its activation only.
-0.304

// Input: "Cc1ccc(Cl)cc1N1CCN(C(=O)c2cn(C)c3ccc(S(=O)(=O)N(C)C4CCCCC4)cc3c2=O)CC1" . Output its activation only.
-1.19

// Input: CCOC(=O)C1CCN(C(c2ccc(F)cc2)c2sc3nc(-c4ccco4)nn3c2O)CC1 (stereo unspecified) . Output its activation only.
0.0847

// Input: "Cc1ccccc1C(=O)Nc1sc2c(c1C(=O)N1CCC(C)CC1)CCCC2" . Output its activation only.
-0.34

// Input: "CCOC(=O)c1c(S(=O)(=O)N2CCC(C(=O)NCc3ccccc3OC)CC2)c(C)n(C)c1C" . Output its activation only.
-0.102

// Input: "COc1ccc(C(=O)Nc2nonc2-c2ccc(OC)c(OC)c2)cc1Cl" . Output its activation only.
-1.06

// Input: "CCOC(=O)c1ccc(-c2ccc(/C=C(\C#N)C(=O)Nc3ccc(C)cc3)o2)cc1" . Output its activation only.
1.6

// Input: "COCCn1c(CCC(=O)Nc2cc(C)ccc2C)nc2cccnc21" . Output its activation only.
-1.95

// Input: "COc1cccc(CNC(=O)Cc2csc3nc(-c4ccccc4)cn23)c1" . Output its activation only.
-0.21

// Input: "Cc1ccc2nc(/C(C#N)=C/c3ccccc3F)[nH]c2c1" . Output its activation only.
1.62

// Input: "COc1ccc(CNC(=O)CCc2c(C)nn(-c3ccc(N4CCCC4)nn3)c2C)cc1" . Output its activation only.
0.0444
